# system.tested: T1, DcR3 (UniProt O95407 30-300, limits assumed)
# T1 construct: the construct is not described; also called decoy receptor DcR3; TNFRSF6B
# T1 sequence (looked up): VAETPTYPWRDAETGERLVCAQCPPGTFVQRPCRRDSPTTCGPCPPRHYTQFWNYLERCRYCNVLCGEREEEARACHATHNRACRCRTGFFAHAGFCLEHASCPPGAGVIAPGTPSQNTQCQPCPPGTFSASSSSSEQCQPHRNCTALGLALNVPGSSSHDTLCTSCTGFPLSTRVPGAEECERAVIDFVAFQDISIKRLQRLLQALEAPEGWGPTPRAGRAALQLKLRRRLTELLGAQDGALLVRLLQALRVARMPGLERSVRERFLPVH
# experiment.notes: ELISA, DcR3
parameter.measured: pEC50
For clarity, pEC50 is expressed as the negative log10 of concentration in mol/L.

Enquiry: Give recorded pEC50. TL1W111 (His-TEV-TL1A S187D) (ligand, also called TL1W111 (S187D)) HHHHHHENLYFQGLKGQEFAPSHQQVYAPLRADGDKPRAHLTVVRQTPTQHFKNQFPALHWEHELGLAFTKNRMNYTNKFLLIPESGDYFIYSQVTFRGMTSECSEIRQAGRPNKPDSITVVITKVTDDYPEPTQLLMGTKSVCEVGSNWFQPIYLGAMFSLQEGDKLMVNVSDISLVDYTKEDKTFFGAFLL
Return: 7.78

Enquiry: Give recorded pEC50. TL1W43 (His-TEV-TL1A Y188S) (ligand, also called TL1W43 (Y188S)) HHHHHHENLYFQGLKGQEFAPSHQQVYAPLRADGDKPRAHLTVVRQTPTQHFKNQFPALHWEHELGLAFTKNRMNYTNKFLLIPESGDYFIYSQVTFRGMTSECSEIRQAGRPNKPDSITVVITKVTDSSPEPTQLLMGTKSVCEVGSNWFQPIYLGAMFSLQEGDKLMVNVSDISLVDYTKEDKTFFGAFLL
Return: 7.14

Enquiry: Give recorded pEC50. TL1W99 (His-TEV-TL1A S176A) (ligand, also called TL1W99 (S176A)) HHHHHHENLYFQGLKGQEFAPSHQQVYAPLRADGDKPRAHLTVVRQTPTQHFKNQFPALHWEHELGLAFTKNRMNYTNKFLLIPESGDYFIYSQVTFRGMTSECSEIRQAGRPNKPDAITVVITKVTDSYPEPTQLLMGTKSVCEVGSNWFQPIYLGAMFSLQEGDKLMVNVSDISLVDYTKEDKTFFGAFLL
Return: 7.94

Enquiry: Give recorded pEC50. TL1W90 (His-TEV-TL1A R156K) (ligand, also called TL1W90 (R156K)) HHHHHHENLYFQGLKGQEFAPSHQQVYAPLRADGDKPRAHLTVVRQTPTQHFKNQFPALHWEHELGLAFTKNRMNYTNKFLLIPESGDYFIYSQVTFKGMTSECSEIRQAGRPNKPDSITVVITKVTDSYPEPTQLLMGTKSVCEVGSNWFQPIYLGAMFSLQEGDKLMVNVSDISLVDYTKEDKTFFGAFLL
Return: 7.96

Enquiry: Give recorded pEC50. TL1W127 (His-TEV-TL1A Y238A) (ligand, also called TL1W127 (Y238A)) HHHHHHENLYFQGLKGQEFAPSHQQVYAPLRADGDKPRAHLTVVRQTPTQHFKNQFPALHWEHELGLAFTKNRMNYTNKFLLIPESGDYFIYSQVTFRGMTSECSEIRQAGRPNKPDSITVVITKVTDSYPEPTQLLMGTKSVCEVGSNWFQPIYLGAMFSLQEGDKLMVNVSDISLVDATKEDKTFFGAFLL
Return: 8.05

Enquiry: Give recorded pEC50. TL1W30 (His-TEV-hTL1A 72-251 N112E) (ligand, also called TL1W30 (N112E)) HHHHHHENLYFQGLKGQEFAPSHQQVYAPLRADGDKPRAHLTVVRQTPTQHFKEQFPALHWEHELGLAFTKNRMNYTNKFLLIPESGDYFIYSQVTFRGMTSECSEIRQAGRPNKPDSITVVITKVTDSYPEPTQLLMGTKSVCEVGSNWFQPIYLGAMFSLQEGDKLMVNVSDISLVDYTKEDKTFFGAFLL
Return: 8.33

Enquiry: Give recorded pEC50. TL1W126 (His-TEV-TL1A F209W) (ligand, also called TL1W126 (F209W)) HHHHHHENLYFQGLKGQEFAPSHQQVYAPLRADGDKPRAHLTVVRQTPTQHFKNQFPALHWEHELGLAFTKNRMNYTNKFLLIPESGDYFIYSQVTFRGMTSECSEIRQAGRPNKPDSITVVITKVTDSYPEPTQLLMGTKSVCEVGSNWWQPIYLGAMFSLQEGDKLMVNVSDISLVDYTKEDKTFFGAFLL
Return: 7.86

Enquiry: Give recorded pEC50. TL1W116 (His-TEV-TL1A T192K) (ligand, also called TL1W116 (T192K)) HHHHHHENLYFQGLKGQEFAPSHQQVYAPLRADGDKPRAHLTVVRQTPTQHFKNQFPALHWEHELGLAFTKNRMNYTNKFLLIPESGDYFIYSQVTFRGMTSECSEIRQAGRPNKPDSITVVITKVTDSYPEPKQLLMGTKSVCEVGSNWFQPIYLGAMFSLQEGDKLMVNVSDISLVDYTKEDKTFFGAFLL
Return: 7.63

Enquiry: Give recorded pEC50. TL1W27 (His-TEV-hTL1A 72-251 T239E) (ligand, also called TL1W27 (T239E)) HHHHHHENLYFQGLKGQEFAPSHQQVYAPLRADGDKPRAHLTVVRQTPTQHFKNQFPALHWEHELGLAFTKNRMNYTNKFLLIPESGDYFIYSQVTFRGMTSECSEIRQAGRPNKPDSITVVITKVTDSYPEPTQLLMGTKSVCEVGSNWFQPIYLGAMFSLQEGDKLMVNVSDISLVDYEKEDKTFFGAFLL
Return: 7.46

Enquiry: Give recorded pEC50. TL1W113 (His-TEV-TL1A P189S) (ligand, also called TL1W113 (P189S)) HHHHHHENLYFQGLKGQEFAPSHQQVYAPLRADGDKPRAHLTVVRQTPTQHFKNQFPALHWEHELGLAFTKNRMNYTNKFLLIPESGDYFIYSQVTFRGMTSECSEIRQAGRPNKPDSITVVITKVTDSYSEPTQLLMGTKSVCEVGSNWFQPIYLGAMFSLQEGDKLMVNVSDISLVDYTKEDKTFFGAFLL
Return: 7.70

Enquiry: Give recorded pEC50. TL1W41 (His-TEV-TL1A E120A) (ligand, also called TL1W41 (E120A)) HHHHHHENLYFQGLKGQEFAPSHQQVYAPLRADGDKPRAHLTVVRQTPTQHFKNQFPALHWAHELGLAFTKNRMNYTNKFLLIPESGDYFIYSQVTFRGMTSECSEIRQAGRPNKPDSITVVITKVTDSYPEPTQLLMGTKSVCEVGSNWFQPIYLGAMFSLQEGDKLMVNVSDISLVDYTKEDKTFFGAFLL
Return: 7.49
